Target: chymotrypsin (Bos taurus)
Assay: Chymotrypsin inhibitive activity (method of Muramatsu et al., acetyl-L-tyrosine ethyl ester substrate, Hestrin Method)
Format: biochemical
Settings: pH 8.0 tris-hydrochloric acid buffer, 10 minutes preincubation, 30° C., 30 minutes, absorbance at 530 nm, read-out: Chymotrypsin inhibitive activity [50% inhibition concentration (M)]
Protocol: A solution prepared by mixing 0.1 ml of a dimethylsulfoxide solution containing a compound to be tested, 0.1 ml of water and 0.1 ml of a buffer solution containing 10 ug/ml of chymotrypsin (0.1M tris-hydrochloric acid buffer solution, pH 8.0) was incubated for 10 minutes by the method of Muramatsu et al. [see The Journal of Biochemistry, 62, 408 (1967)]. […]
READOUT_LABEL: IC50 (M)

>  <COMPOUND>
O=C(Oc1ccc(C(=O)N2CCN(C3CCCCC3)CC2)cc1)C1CCCc2ccccc21 (stereo not drawn) [Example 66]

>  <READOUT_LABEL>
IC50

>  <QUANTITY_UNIT>
M

>  <NUMERIC_READOUT>
9e-07

$$$$

(P) CC(C)N1CCN(C(=O)c2ccc(OC(=O)Cc3cc4ccccc4s3)cc2)CC1 [Example 3]
(Q) CC(C)N1CCN(C(=O)c2ccc(OC(=O)C3C=CCc4cc(Cl)ccc43)cc2)CC1 (stereo not drawn) [Example 21]
Input: Hi there, can you help? I need to know whether P or Q has lower measured IC50. Answer by stating the label of the chosen item.
Output: P
(P: 9e-07 M, Q: 9e-06 M)

(I) CC(C)N1CCN(C(=O)c2ccc(OC(=O)C3=Cc4ccccc4CC3)cc2)CC1 [Example 20]
(II) CC(C)N1CCN(C(=O)c2ccc(OC(=O)COc3ccc4ccccc4c3)cc2)CC1 [Example 30]
(III) CC1CCC(C(=O)Oc2ccc(C(=O)N3CCN(C(C)C)CC3)cc2)c2ccccc21 (stereo not drawn) [Example 15]
Input: Place the items in sequence of falling IC50. List each label, following the requested order.
Output: II, I, III

(P) CC(C)N1CCN(C(=O)c2ccc(OC(=O)CCc3ccc4ccccc4c3)cc2)CC1 [Example 32]
(Q) CC(C)N1CCN(C(=O)c2ccc(OC(=O)C3CCCc4cc(Cl)ccc43)cc2)CC1 (stereo not drawn) [Example 17]
Input: Recorded IC50 values differ for P and Q ; which one is higher? Answer by stating the label of the chosen item.
Output: P
(P: 7e-06 M, Q: 8e-07 M)

(1) COc1ccc2c(c1)C(CC(=O)Oc1ccc(C(=O)N3CCN(C(C)C)CC3)cc1)=CC2 [Example 9]
(2) CC(C)N1CCN(C(=O)c2ccc(OC(=O)C3CCc4ccccc43)cc2)CC1 (stereo not drawn) [Example 4]
Input: Recorded IC50 values differ for 1 and 2 ; which one is higher? Answer by stating the label of the chosen item.
Output: 2
